The origin of these recorded values is ChEMBL document CHEMBL4808195.

# Test system: MDA-MB-231
# Experiment Summary: Anticancer activity against human MDA-MB-231 cells assessed as inhibition of cell growth at 10 uM measured by SRB method
# Type: functional
So basically: inhibition at 10 µM at 20% or higher? That is T. Lower than 20%? That is F.

// below: answered molecules
>  <Molecule>
CN1CCN(c2ccc(C3=NN(C(=O)Cc4ccccc4)C(c4ccc(N(C)C)cc4)C3)cc2)CC1 (stereo not given)

>  <Category>
F

$$$$
>  <Molecule>
COC(=O)CC(=O)N1N=C(c2ccc(-n3cncn3)cc2)CC1c1ccc(N(C)C)cc1 (stereo not given)

>  <Category>
F

$$$$
>  <Molecule>
CN(C)c1ccc(C2CC(c3ccc(-n4cncn4)cc3)=NN2S(C)(=O)=O)cc1 (stereo not given)

>  <Category>
F

$$$$
>  <Molecule>
CN(C)c1ccc(C2CC(c3ccc(-n4cncn4)cc3)=NN2S(=O)(=O)c2ccc(C#N)cc2)cc1 (stereo not given)

>  <Category>
T

$$$$

Assess whether reported inhibition at 10 µM for CC(=O)N1N=C(c2ccc(-n3ccnc3)cc2)CC1c1ccc(N(C)C)cc1 (stereo not given) sits at 20% or higher.
F

Has COC(=O)CC(=O)N1N=C(c2ccc(-n3ccnc3)cc2)CC1c1ccc(N(C)C)cc1 (stereo not given) a recorded inhibition at 10 µM greater than or equal to 20%?
F

Kindly determine if inhibition at 10 µM recorded for CN1CCN(c2ccc(C3=NN(S(=O)(=O)c4ccc(OC(F)(F)F)cc4)C(c4ccc(N(C)C)cc4)C3)cc2)CC1 (stereo not given) is above or exactly 20%.
F

hey, is inhibition at 10 µM for this one >= 20%? CN(C)c1ccc(C2CC(c3ccc(-n4ccnc4)cc3)=NN2C(=O)Cc2ccccc2)cc1 (stereo not given)
F

Dear colleague, could you confirm whether CN(C)c1ccc(C2CC(c3ccc(-n4cncn4)cc3)=NN2C(=O)/C=C/c2ccccc2)cc1 (stereo not given) has inhibition at 10 µM at or above 20%?
F

inhibition at 10 µM >= 20% for Cc1ccc(C(=O)N2N=C(c3ccc(N4CCN(C)CC4)cc3)CC2c2ccc(N(C)C)cc2)cc1 (stereo not given) ?
F

Hi, just wondering whether CN(C)c1ccc(C2CC(c3ccc(-n4cncn4)cc3)=NN2C(=O)CCCl)cc1 (stereo not given) shows inhibition at 10 µM of 20% or higher.
F

Please indicate if the recorded inhibition at 10 µM for CN(C)c1ccc(C2CC(c3ccc(-n4cncn4)cc3)=NN2S(=O)(=O)c2ccc(C(F)(F)F)cc2)cc1 (stereo not given) meets or exceeds 20%.
F

Check if inhibition at 10 µM >= 20% (inclusive). Item: CN(C)c1ccc(C2CC(c3ccc(-n4cncn4)cc3)=NN2S(=O)(=O)c2ccc(Br)cc2)cc1 (stereo not given)
F

Exam item: decide whether the reported inhibition at 10 µM for CN1CCN(c2ccc(C3=NN(S(=O)(=O)c4ccc(C#N)cc4)C(c4ccc(N(C)C)cc4)C3)cc2)CC1 (stereo not given) is at least 20%.
T

Does inhibition at 10 µM meet or surpass 20% for CN1CCN(c2ccc(C3=NNC(c4ccc(N(C)C)cc4)C3)cc2)CC1 (stereo not given) ?
F

Does Cc1ccc(S(=O)(=O)N2N=C(c3ccc(-n4ccnc4)cc3)CC2c2ccc(N(C)C)cc2)cc1 (stereo not given) have a reported inhibition at 10 µM of at least 20%?
T

Is inhibition at 10 µM for CN1CCN(c2ccc(C3=NN(C(=O)/C=C/c4ccccc4)C(c4ccc(N(C)C)cc4)C3)cc2)CC1 (stereo not given) at or above 20%?
T

Record CN1CCN(c2ccc(C3=NN(S(=O)(=O)c4ccc(Br)cc4)C(c4ccc(N(C)C)cc4)C3)cc2)CC1 (stereo not given) ; criterion: inhibition at 10 µM no lower than 20%. Met?
T

Is inhibition at 10 µM for CN1CCN(c2ccc(C3=NN(S(=O)(=O)c4ccc(C(F)(F)F)cc4)C(c4ccc(N(C)C)cc4)C3)cc2)CC1 (stereo not given) at or above 20%?
F
